SYSTEM_NAME: EGFR (Homo sapiens, UniProt P00533)
Construct: Add 7 ug A431 cell lysate per well (EGFR source); endogenous in cells; host or cells: A431
Sequence (P00533 25-1210): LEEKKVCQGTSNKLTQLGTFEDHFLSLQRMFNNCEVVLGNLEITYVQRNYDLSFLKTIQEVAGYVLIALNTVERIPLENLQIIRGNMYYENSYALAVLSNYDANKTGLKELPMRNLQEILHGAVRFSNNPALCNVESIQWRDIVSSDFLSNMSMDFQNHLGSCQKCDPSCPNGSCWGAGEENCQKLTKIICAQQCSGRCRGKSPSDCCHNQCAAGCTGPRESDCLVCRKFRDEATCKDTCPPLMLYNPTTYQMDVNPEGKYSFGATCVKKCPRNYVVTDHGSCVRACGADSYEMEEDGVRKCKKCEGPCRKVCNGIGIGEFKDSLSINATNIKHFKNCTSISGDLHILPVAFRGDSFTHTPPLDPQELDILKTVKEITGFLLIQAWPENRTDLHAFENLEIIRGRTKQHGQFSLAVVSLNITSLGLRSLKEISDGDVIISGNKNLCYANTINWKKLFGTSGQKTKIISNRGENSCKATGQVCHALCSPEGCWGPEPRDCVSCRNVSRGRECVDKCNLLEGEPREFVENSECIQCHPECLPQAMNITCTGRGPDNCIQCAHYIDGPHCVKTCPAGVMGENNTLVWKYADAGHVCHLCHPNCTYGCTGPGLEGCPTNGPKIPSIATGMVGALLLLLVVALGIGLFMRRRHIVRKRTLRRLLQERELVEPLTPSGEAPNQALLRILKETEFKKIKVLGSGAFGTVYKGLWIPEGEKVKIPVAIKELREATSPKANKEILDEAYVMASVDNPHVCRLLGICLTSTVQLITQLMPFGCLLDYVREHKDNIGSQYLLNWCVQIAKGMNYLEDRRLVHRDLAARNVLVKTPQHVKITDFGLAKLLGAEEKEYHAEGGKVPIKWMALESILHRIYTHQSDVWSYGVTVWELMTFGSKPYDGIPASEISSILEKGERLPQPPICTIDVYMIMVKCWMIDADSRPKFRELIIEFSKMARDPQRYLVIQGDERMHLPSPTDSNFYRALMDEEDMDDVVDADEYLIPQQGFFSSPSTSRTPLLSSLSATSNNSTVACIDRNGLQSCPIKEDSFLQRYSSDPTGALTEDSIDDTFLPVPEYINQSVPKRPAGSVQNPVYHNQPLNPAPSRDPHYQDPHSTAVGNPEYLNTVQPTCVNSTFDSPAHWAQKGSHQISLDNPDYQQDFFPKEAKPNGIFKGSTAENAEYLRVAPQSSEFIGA
TEST_DESCRIPTION: EGFR ELISA assay (in vitro kinase activity, EGFR captured from A431 cell lysate)
Type: biochemical
Parameters: concentration or dose not given beside the values
# label = Yes if Biochem EGFR %Inhibition < 20% else No

Asked: Take the compound O=C1Nc2ccc(CCCl)cc2C1=Cc1ccc(Cl)c([N+](=O)[O-])c1 [10718/G08] and say whether its Biochem EGFR %Inhibition is less than 20%.
Given back: Yes

---

Tested on: MET
TEST_DESCRIPTION: MET biochemical kinase assay
Set-up: species or system human; concentration or dose not given beside the values
Excerpt: A met biochemical kinase assay may be performed for met generally as described above for other kinases by substituting that or the other kinases. […] Incorporation of phosphate into the captured receptors is detected with an anti-phosphotyrosine antibody conjugate with horse radish peroxidase using TMB as a substrate for colorimetric detection.
# cutoff 30% applies to Met Kinase % Inhibition; >= gives 1.0, < gives 0.0

Sample answers from the record:
Asked: Has O=C1Nc2ccc(S(=O)(=O)N3CCOCC3)cc2C1=Cc1ccc(F)cc1Cl [10719/F09] a recorded Met Kinase % Inhibition greater than or equal to 30%?
Given back: 0.0

Asked: Another molecule: Cc1cc(C)c(C=C2C(=O)Nc3ccc(CCCl)cc32)[nH]1 [10721/G08]
Given back: 0.0

Asked: Another molecule: COc1c(Cl)cc(C=C2C(=O)Nc3ccc(CCCl)cc32)cc1C(C)(C)C [10732/G09]
Given back: 1.0

Others:
Asked: Has CNS(=O)(=O)c1ccc2c(c1)C(=Cc1ccc(N3CCN(C=O)CC3)cc1)C(=O)N2 [10725/D07] a recorded Met Kinase % Inhibition greater than or equal to 30%?
Given back: 1.0
